Data credit: patent US8921376B2

This section presents compounds with their documented pKi values.
target: JAK2 (Homo sapiens); assay: JAK2 inhibition assay (as Example 3 with JAK-2 enzyme); format: biochemical; conditions: Table 6; enzyme inhibition data (Ki)
Sequence (O60674 whole entry): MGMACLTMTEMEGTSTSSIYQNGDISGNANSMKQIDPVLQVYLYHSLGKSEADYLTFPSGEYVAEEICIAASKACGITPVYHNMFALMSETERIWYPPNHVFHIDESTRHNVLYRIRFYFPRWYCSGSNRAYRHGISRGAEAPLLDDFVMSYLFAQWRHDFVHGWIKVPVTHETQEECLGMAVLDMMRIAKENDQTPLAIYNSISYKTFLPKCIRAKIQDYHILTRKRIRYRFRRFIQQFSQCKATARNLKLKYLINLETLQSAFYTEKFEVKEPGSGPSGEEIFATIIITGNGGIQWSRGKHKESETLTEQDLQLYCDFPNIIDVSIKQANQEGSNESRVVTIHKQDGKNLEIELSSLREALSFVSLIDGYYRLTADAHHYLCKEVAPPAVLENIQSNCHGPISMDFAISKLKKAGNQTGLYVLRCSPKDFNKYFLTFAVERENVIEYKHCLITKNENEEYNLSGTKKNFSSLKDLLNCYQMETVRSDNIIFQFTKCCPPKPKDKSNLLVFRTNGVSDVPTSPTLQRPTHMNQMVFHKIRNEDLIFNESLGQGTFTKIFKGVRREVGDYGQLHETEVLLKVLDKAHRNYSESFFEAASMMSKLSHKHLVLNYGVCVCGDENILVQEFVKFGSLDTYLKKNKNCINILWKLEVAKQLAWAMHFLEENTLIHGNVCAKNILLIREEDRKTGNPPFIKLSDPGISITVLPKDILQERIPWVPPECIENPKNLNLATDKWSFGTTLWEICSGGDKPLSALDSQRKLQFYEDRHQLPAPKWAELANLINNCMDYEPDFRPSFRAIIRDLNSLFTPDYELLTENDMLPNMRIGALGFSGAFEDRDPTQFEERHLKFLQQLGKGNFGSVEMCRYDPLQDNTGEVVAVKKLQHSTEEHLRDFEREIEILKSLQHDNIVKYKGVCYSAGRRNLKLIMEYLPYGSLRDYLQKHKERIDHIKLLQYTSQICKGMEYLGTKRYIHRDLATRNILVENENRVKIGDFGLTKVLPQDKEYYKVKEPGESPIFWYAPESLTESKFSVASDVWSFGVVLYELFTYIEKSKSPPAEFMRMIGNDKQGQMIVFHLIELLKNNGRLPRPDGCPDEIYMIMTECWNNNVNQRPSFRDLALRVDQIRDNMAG
pKi: −log10 of the molar value.

{"smiles.record": "CC(C)CN(CC(C)C)C(=O)c1ccc(-c2ccnc3[nH]ccc23)s1", "pKi": "> 6.30"}
{"smiles.record": "O=C(NCC(F)(F)F)c1cc(-c2ccnc3[nH]ccc23)c[nH]1", "pKi": "> 6.30"}
{"smiles.record": "CCCOC(=O)N1CC[C@@H](Nc2c(Cl)cnc3[nH]ccc23)C1", "pKi": "> 6.30"}
{"smiles.record": "N#Cc1ccc(Nc2c(Cl)cnc3[nH]ccc23)c(Cl)c1", "pKi": "> 6.30"}
{"smiles.record": "COc1cccc(OC)c1-c1ccnc2[nH]ccc12", "pKi": "< 5.30"}
{"smiles.record": "O=C(NCCC(F)(F)F)c1ccc(-c2ccnc3[nH]ccc23)cc1", "pKi": "> 6.30"}
{"smiles.record": "O=C(c1csc(-c2ccnc3[nH]ccc23)n1)N1CCCC1", "pKi": "> 6.30"}
{"smiles.record": "CC(C)(C)OCc1ccccc1-c1ccnc2[nH]ccc12", "pKi": "< 5.30"}
{"smiles.record": "CC(C)(C(=O)NCC(F)(F)F)c1cccc(-c2ccnc3[nH]ccc23)n1", "pKi": "> 6.30"}
